# test-system: UniProtKB P35372
# Sequence (P35372 whole entry): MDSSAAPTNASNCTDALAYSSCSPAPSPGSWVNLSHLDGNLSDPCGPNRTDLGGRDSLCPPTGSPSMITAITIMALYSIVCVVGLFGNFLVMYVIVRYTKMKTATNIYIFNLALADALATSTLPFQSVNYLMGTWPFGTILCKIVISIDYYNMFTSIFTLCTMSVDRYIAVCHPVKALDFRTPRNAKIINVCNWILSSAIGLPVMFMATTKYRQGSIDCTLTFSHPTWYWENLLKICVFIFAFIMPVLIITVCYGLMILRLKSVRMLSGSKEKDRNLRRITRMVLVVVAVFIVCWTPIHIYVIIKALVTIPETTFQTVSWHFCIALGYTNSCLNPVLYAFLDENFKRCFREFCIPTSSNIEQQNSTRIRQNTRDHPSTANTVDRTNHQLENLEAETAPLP
parameter: Ki

Exercise: Find Ki (UniProtKB P35372) for the entry `C=Cc1c(-c2ccccc2)nn(CCCC)c(=O)c1N`
Solution: > 10 µM

---

# test-system: Kappa-type opioid receptor (Homo sapiens, UniProt P41145)
# Sequence (P41145 whole entry): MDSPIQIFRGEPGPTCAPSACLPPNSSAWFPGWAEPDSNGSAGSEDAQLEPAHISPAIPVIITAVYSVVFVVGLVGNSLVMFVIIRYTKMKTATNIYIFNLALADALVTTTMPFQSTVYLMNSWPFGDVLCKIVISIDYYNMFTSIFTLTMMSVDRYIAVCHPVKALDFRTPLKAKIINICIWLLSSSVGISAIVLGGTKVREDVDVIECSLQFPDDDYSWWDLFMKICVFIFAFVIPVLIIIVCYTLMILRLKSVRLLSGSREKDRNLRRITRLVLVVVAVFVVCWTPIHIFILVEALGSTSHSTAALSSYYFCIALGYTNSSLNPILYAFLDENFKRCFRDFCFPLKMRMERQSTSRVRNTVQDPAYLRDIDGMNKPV
parameter: Ki

Exercise: Find Ki (Kappa-type opioid receptor (Homo sapiens, UniProt P41145)) for the entry `C=Cc1c(-c2ccccc2)nn(CCCC)c(=O)c1N`
Solution: > 10 µM

---

# test-system: Delta-type opioid receptor (Homo sapiens)
# Sequence (P41143 whole entry): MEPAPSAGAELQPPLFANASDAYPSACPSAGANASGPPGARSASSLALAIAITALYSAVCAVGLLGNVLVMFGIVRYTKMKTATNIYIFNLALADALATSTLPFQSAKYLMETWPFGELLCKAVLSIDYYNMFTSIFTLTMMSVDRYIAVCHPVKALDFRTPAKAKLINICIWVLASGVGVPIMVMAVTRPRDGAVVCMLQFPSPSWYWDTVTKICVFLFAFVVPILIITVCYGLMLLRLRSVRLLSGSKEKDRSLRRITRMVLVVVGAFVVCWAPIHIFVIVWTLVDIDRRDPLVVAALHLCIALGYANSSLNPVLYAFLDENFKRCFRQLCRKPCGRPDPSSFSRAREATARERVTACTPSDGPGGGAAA
# measurement-notes: Binding affinity to delta opioid receptor
parameter: Ki

Exercise: What value of Ki has been reported for the following compound? `C=Cc1c(-c2ccccc2)nn(CCCC)c(=O)c1N`
Solution: > 10 µM
